target-system: PAD3 (Homo sapiens)
Construct: made in house
Sequence (Q9ULW8 1-664): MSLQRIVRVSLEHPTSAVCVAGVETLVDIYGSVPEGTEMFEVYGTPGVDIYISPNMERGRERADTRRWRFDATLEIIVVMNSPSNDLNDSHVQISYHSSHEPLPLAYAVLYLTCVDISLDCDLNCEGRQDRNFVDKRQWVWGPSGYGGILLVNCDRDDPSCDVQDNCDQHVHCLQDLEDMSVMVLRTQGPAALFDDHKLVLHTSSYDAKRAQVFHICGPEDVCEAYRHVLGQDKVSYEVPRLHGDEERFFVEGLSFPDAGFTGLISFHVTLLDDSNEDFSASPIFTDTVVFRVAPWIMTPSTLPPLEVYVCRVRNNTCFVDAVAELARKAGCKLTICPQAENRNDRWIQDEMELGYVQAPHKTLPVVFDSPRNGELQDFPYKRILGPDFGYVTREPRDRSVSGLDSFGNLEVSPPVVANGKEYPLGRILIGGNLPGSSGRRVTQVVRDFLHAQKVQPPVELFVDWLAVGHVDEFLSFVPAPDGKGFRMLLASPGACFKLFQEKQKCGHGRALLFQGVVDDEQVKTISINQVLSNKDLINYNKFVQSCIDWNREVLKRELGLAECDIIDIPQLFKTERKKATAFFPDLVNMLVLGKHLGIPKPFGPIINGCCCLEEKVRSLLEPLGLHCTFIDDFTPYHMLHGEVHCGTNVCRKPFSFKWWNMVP
protocol: Inactivation kinetics, PAD3
Assay type: biochemical
applied-conditions: kinact/KI relative to least inhibited isozyme (1.0)
observation-type: Fold PAD3 Selectivity (fold)

Reference set (5 entries):
Cn1c([C@H](CCCNC(=N)CCl)NC(=O)c2cccc3c2C(=O)NC3)nc2ccccc21 [Compound 7d] ... 2.0
N=C(CCl)NCCC[C@H](NC(=O)c1ccc(-c2ccc(F)cc2)cc1)c1nc2ccccc2[nH]1 [Compound 5p] ... 1.9
Cn1c([C@H](CCCNC(=N)CCl)NC(=O)c2ccc(-c3ccccc3)cc2)nc2ccccc21 [Compound 5h] ... 2.5
CCN1Cc2cccc(C(=O)N[C@@H](CCCNC(=N)CCl)c3nc4ccccc4n3CC)c2C1=O [Compound 8f] ... 2.1
CC(C)n1c([C@H](CCCNC(=N)CF)NC(=O)c2ccc(-c3ccccc3)cc2)nc2ccccc21 [Compound 5k] ... 85

a = CC(C)n1c([C@H](CCCNC(=N)CCl)NC(=O)c2ccccc2C(=O)OC(C)(C)C)nc2ccccc21 [Compound 9f]
b = CCOc1cccc2c1nc([C@H](CCCNC(=N)CF)NC(=O)c1cccc3c1C(=O)N(CC)C3)n2C [Compound 8m]
Between the two listed entries a and b , which has its Fold PAD3 Selectivity at the higher number? Reply briefly: the label of your chosen item.
a

P = CCN1Cc2cccc(C(=O)N[C@@H](CCCNC(=N)CF)c3nc4c(OC)cccc4[nH]3)c2C1=O [Compound 8i]
Q = CCn1c([C@H](CCCNC(=N)CF)NC(=O)c2ccccc2C(=O)O)nc2ccccc21 [Compound 6e]
R = N=C(CCl)NCCC[C@H](NC(=O)c1ccccc1C(=O)O)c1nc2ccccc2[nH]1 [Compound 6b]
S = CCN1Cc2cccc(C(=O)N[C@@H](CCCNC(=N)CCl)c3nc4c(OC)cccc4[nH]3)c2C1=O [Compound 8j]
Returns the items ordered by Fold PAD3 Selectivity, from maximum to minimum. Provide the labels, sequenced as the question asks.
P, R, Q, S
(P: 12 fold, R: 6.2 fold, Q: 1.7 fold, S: 1.0 fold)

###

target-system: PAD1 (Homo sapiens, UniProt Q9ULC6)
Construct: made in house
Sequence (Q9ULC6 whole entry): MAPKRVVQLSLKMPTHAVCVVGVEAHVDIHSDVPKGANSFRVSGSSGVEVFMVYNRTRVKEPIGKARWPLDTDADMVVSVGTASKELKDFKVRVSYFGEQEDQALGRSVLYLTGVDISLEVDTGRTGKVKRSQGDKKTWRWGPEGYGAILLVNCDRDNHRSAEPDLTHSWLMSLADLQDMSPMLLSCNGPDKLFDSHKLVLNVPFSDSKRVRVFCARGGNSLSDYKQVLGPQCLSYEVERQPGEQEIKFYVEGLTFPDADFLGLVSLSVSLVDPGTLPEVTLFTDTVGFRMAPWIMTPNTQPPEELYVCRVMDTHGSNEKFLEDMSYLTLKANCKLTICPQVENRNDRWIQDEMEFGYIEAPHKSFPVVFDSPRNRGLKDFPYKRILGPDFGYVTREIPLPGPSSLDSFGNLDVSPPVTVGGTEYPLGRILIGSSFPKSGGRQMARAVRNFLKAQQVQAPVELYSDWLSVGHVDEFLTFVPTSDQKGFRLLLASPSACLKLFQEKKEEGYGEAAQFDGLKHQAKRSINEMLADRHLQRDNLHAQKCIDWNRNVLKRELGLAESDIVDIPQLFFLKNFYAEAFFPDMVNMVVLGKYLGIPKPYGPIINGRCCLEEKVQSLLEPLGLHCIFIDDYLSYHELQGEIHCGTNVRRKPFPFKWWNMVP
protocol: Inactivation kinetics, PAD1
Assay type: biochemical
applied-conditions: kinact/KI relative to least inhibited isozyme (1.0)
observation-type: Fold PAD1 Selectivity (fold)

Reference set (3 entries):
CCn1c([C@H](CCCNC(=N)CCl)NC(=O)c2cccc3c2C(=O)NC3)nc2c(OC)cccc21 ... 50
CCN1Cc2cccc(C(=O)N[C@@H](CCCNC(=N)CCl)c3nc4c(OC)cccc4n3CC)c2C1=O ... 31
C#Cc1ccc(-c2ccc(C(=O)N[C@@H](CCCNC(=N)CCl)c3nc4ccccc4[nH]3)cc2)cc1 ... 1.1

I = Cn1c([C@H](CCCNC(=N)CF)NC(=O)c2ccccc2C(=O)O)nc2ccccc21
II = CC(C)n1c([C@H](CCCNC(=N)CF)NC(=O)c2ccccc2C(=O)OC(C)(C)C)nc2ccccc21
Between the two listed entries I and II , which has its Fold PAD1 Selectivity at the higher number? Reply briefly: the label of your chosen item.
I
(I: 40 fold, II: 8.9 fold)

###

target-system: PAD3 (Homo sapiens, UniProt Q9ULW8)
Construct: made in house
Sequence (Q9ULW8 1-664): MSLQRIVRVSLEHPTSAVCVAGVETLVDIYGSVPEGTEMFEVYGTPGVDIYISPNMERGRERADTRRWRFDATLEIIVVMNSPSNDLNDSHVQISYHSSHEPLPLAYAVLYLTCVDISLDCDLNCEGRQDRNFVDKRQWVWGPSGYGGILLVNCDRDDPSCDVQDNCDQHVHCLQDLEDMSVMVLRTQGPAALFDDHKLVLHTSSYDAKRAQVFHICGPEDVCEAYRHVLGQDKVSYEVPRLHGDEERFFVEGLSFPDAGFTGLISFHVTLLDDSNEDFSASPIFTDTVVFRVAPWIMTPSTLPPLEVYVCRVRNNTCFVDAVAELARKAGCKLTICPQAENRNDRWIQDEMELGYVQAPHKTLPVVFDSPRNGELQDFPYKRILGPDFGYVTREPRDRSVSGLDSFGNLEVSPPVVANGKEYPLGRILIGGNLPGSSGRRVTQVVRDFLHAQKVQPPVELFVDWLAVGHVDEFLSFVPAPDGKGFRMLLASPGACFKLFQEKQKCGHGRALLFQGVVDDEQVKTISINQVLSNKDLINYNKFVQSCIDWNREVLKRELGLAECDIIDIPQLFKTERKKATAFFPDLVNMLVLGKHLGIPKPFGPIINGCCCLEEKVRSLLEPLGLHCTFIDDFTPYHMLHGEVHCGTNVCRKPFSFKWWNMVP
protocol: Inactivation kinetics, PAD3
Assay type: biochemical
applied-conditions: kinact/KI relative to least inhibited isozyme (1.0)
observation-type: Fold PAD3 Selectivity (fold)

Reference set (3 entries):
CCN1Cc2cccc(C(=O)N[C@@H](CCCNC(=N)CCl)c3nc4c(OC)cccc4n3CC)c2C1=O ... 3.4
COc1cccc2c1nc([C@H](CCCNC(=N)CF)NC(=O)c1cccc3c1C(=O)N(C(C)C)C3)n2C ... 1.0
N=C(CCl)NCCC[C@H](NC(=O)c1ccccc1)c1nc2ccccc2[nH]1 ... 20

1 = CCN1Cc2cccc(C(=O)N[C@@H](CCCNC(=N)CF)c3nc4ccccc4[nH]3)c2C1=O
2 = CCN1Cc2cccc(C(=O)N[C@@H](CCCNC(=N)CF)c3nc4ccccc4n3C)c2C1=O
3 = CCN1Cc2cccc(C(=O)N[C@@H](CCCNC(=N)CF)c3nc4ccccc4n3C(C)C)c2C1=O
Hi! Can you put these in order of Fold PAD3 Selectivity, lowest number first? Provide the labels, sequenced as the question asks.
1, 2, 3
(1: 1.0 fold, 2: 1.9 fold, 3: 3.4 fold)

A = COc1cccc2c1nc([C@H](CCCNC(=N)CCl)NC(=O)c1ccc(-c3ccccc3)cc1)n2C
B = CC(C)n1c([C@H](CCCNC(=N)CF)NC(=O)c2ccccc2C(=O)OC(C)(C)C)nc2ccccc21
Looking at recorded values for Fold PAD3 Selectivity, does A or B come in lower? Reply briefly: the label of your chosen item.
A
(A: 1.0 fold, B: 13 fold)

1 = CCN1Cc2cccc(C(=O)N[C@@H](CCCNC(=N)CF)c3nc4cc(OC)ccc4n3C)c2C1=O
2 = Cn1c([C@H](CCCNC(=N)CCl)NC(=O)c2ccccc2C(=O)OC(C)(C)C)nc2ccccc21
Looking at recorded values for Fold PAD3 Selectivity, does 1 or 2 come in lower? Reply briefly: the label of your chosen item.
1
(1: 1.0 fold, 2: 1.6 fold)

###

target-system: PAD4 (Homo sapiens, UniProt Q9UM07)
Construct: made in house
Sequence (Q9UM07 whole entry): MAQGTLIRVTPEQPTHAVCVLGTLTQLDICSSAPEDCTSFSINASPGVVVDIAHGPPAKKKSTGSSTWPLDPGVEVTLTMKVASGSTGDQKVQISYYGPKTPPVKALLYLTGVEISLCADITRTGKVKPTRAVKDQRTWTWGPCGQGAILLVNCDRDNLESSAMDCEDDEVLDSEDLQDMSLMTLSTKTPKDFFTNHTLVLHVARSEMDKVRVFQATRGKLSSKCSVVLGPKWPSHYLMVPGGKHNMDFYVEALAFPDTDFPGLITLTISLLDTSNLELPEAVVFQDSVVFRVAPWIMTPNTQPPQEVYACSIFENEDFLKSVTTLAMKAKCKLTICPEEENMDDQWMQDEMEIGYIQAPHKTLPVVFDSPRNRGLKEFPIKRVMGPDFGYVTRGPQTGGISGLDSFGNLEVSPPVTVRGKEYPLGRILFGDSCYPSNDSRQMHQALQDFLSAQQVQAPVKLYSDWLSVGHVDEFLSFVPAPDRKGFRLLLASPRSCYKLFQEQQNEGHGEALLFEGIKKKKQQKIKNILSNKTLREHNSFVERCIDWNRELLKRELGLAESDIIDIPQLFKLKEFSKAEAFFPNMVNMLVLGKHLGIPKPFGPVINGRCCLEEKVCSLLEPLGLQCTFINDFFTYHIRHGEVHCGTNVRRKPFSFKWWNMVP
protocol: Inactivation kinetics, PAD4
Type: biochemical
applied-conditions: a: single kobs determined; b: from a linear fit
observation-type: kinact/KI (M⁻¹ s⁻¹)

Reference set (4 entries):
N=C(CCl)NCCC[C@H](NC(=O)c1ccccc1)c1nc2ccccc2[nH]1 [Compound 5b] ... 254
CC(C)n1c([C@H](CCCNC(=N)CF)NC(=O)c2cccc3c2C(=O)NC3)nc2ccccc21 [Compound 7g] ... 20.5
CC(C)n1c([C@H](CCCNC(=N)CF)NC(=O)c2ccccc2C(=O)OC(C)(C)C)nc2ccccc21 [Compound 9e] ... 2.67
CCOc1cccc2c1nc([C@H](CCCNC(=N)CF)NC(=O)c1cccc3c1C(=O)NC3)n2C [Compound 7m] ... 16.5

A = CC(C)n1c([C@H](CCCNC(=N)CF)NC(=O)c2ccccc2C(=O)O)nc2ccccc21 [Compound 6g]
B = CCN1Cc2cccc(C(=O)N[C@@H](CCCNC(=N)CF)c3nc4cc(OC)ccc4[nH]3)c2C1=O [Compound 8w]
Between the two listed entries A and B , which has its kinact/KI at the higher number? Reply briefly: the label of your chosen item.
B
(B: 35.7 M⁻¹ s⁻¹, A: 7.67 M⁻¹ s⁻¹)

A = N=C(CF)NCCC[C@H](NC(=O)c1ccc(-c2ccccc2)cc1)c1nc2cc(F)c(F)cc2[nH]1 [Compound 5q]
B = C#Cc1ccc(-c2ccc(C(=O)N[C@@H](CCCNC(=N)CF)c3nc4ccccc4[nH]3)cc2)cc1 [Compound 5u]
C = CCN1Cc2cccc(C(=O)N[C@@H](CCCNC(=N)CF)c3nc4cc(OC)ccc4n3CC)c2C1=O [Compound 8y]
Hi! Can you put these in order of kinact/KI, lowest number first? Provide the labels, sequenced as the question asks.
C, B, A
(C: 9 M⁻¹ s⁻¹, B: 29.5 M⁻¹ s⁻¹, A: 60 M⁻¹ s⁻¹)

I = CCN1Cc2cccc(C(=O)N[C@@H](CCCNC(=N)CF)c3nc4ccccc4n3C)c2C1=O [Compound 8c]
II = COc1cccc2[nH]c([C@H](CCCNC(=N)CCl)NC(=O)c3cccc4c3C(=O)NC4)nc12 [Compound 7j]
Looking at recorded values for kinact/KI, does I or II come in lower? Reply briefly: the label of your chosen item.
I

a = Cn1c([C@H](CCCNC(=N)CCl)NC(=O)c2ccccc2C(=O)OC(C)(C)C)nc2ccccc21 [Compound 9b]
b = C#Cc1ccc(-c2ccc(C(=O)N[C@@H](CCCNC(=N)CCl)c3nc4ccccc4[nH]3)cc2)cc1 [Compound 5v]
c = CCN1Cc2cccc(C(=O)N[C@@H](CCCNC(=N)CCl)c3nc4ccccc4n3C(C)C)c2C1=O [Compound 8h]
Returns the items ordered by kinact/KI, from maximum to minimum. Provide the labels, sequenced as the question asks.
a, c, b
